Reference source: ChEMBL document CHEMBL3351655

experimental-system: Adenosine receptor A2b (Homo sapiens)
protocol: Antagonist activity at human adenosine A2B receptor expressed in CHO cells assessed as inhibition of NECA-stimulated adenylyl cyclase activity
pKi: −log10 of the molar value.
Exercise: for every item that follows, state its recorded pKi.

• CC(C)Nc1ncc(C(=O)O)c2nc(-c3ccco3)nn12 = < 5.00
• CCOC(=O)c1cnc(N2CCCC2)n2nc(-c3ccco3)nc12 = < 5.00
• CNc1ncc(C(=O)O)c2nc(-c3ccco3)nn12 = < 5.00
• O=C(O)c1cnc(NC2CC2)n2nc(-c3ccco3)nc12 = < 5.00
• CCCCCNc1ncc(C(=O)OCC)c2nc(-c3ccco3)nn12 = < 5.00

Dear colleague, could you please provide pKi for the compounds listed below?
1. CCOC(=O)c1cnc(NCc2ccc(C)cc2)n2nc(-c3ccco3)nc12
2. CCOC(=O)c1cnc(NC(=O)Cc2ccccc2)n2nc(-c3ccco3)nc12
3. O=C(O)c1cnc(NCc2ccc(F)cc2)n2nc(-c3ccco3)nc12
4. CCOC(=O)c1cnc(SC)n2nc(-c3ccco3)nc12
5. O=C(O)c1cnc(NCc2ccc(-c3ccccc3)cc2)n2nc(-c3ccco3)nc12

5.00
< 4.52
< 4.52
< 4.52
< 4.52

====

Exercise: for every item that follows, state its recorded log10 of Ki.
Sequence of the target: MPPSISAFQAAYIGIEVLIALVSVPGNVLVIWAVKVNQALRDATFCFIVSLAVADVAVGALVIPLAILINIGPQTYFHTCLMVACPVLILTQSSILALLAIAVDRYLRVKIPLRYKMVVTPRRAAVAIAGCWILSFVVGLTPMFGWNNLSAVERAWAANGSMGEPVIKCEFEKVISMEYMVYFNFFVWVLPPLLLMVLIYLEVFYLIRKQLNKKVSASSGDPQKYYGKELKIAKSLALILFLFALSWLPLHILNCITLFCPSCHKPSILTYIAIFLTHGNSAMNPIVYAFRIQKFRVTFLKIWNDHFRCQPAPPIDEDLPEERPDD
// do not treat as linear: log10 of Ki, unit µM

These recorded examples may help you get a feel for the data.
• CC(C)Nc1ncc(C(=O)O)c2nc(-c3ccco3)nn12 = 0.65
• CCOC(=O)c1cnc(N(C)C)n2nc(-c3ccco3)nc12 = 1.13
• CCOC(=O)c1cnc(NOC)n2nc(-c3ccco3)nc12 = 0.81
• CNC(=O)c1cnc(NC(=O)Nc2ccccc2)n2nc(-c3ccco3)nc12 = -0.90
• CCOC(=O)c1cnc(N)n2nc(-c3ccco3)nc12 = -0.73

Dear colleague, could you please provide log10 of Ki for the molecules listed below?
1. CCOC(=O)c1cnc(NCc2ccc(OC)c(OC)c2)n2nc(-c3ccco3)nc12
2. CCCCCNc1ncc(C(=O)O)c2nc(-c3ccco3)nn12
3. CCOC(=O)c1cnc(NC2CCCCCC2)n2nc(-c3ccco3)nc12
4. O=C(O)c1cnc(NC2CC2)n2nc(-c3ccco3)nc12

-0.50
1.02
-0.64
0.05

====

experimental-system: Adenosine receptor A2b (Homo sapiens, UniProt P29275)
Sequence (P29275 whole entry): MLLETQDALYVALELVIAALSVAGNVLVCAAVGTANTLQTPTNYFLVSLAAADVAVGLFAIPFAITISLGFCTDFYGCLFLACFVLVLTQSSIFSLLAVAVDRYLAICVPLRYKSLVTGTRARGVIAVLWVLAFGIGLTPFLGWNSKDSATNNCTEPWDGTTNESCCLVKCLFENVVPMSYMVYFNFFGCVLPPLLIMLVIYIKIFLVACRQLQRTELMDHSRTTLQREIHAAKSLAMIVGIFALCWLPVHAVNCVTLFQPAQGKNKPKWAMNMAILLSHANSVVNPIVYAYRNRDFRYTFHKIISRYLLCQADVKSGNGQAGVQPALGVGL
protocol: Antagonist activity at human adenosine A2B receptor expressed in CHO cells assessed as inhibition of NECA-stimulated adenylyl cyclase activity
measurement-name: Ki

Dear colleague, could you please provide Ki for the molecules listed below?
1. O=C(O)c1cnc(NCc2ccccc2)n2nc(-c3ccco3)nc12
2. CCOC(=O)c1cnc(NC2CCCCCC2)n2nc(-c3ccco3)nc12
3. Cc1ccc(CNc2ncc(C(=O)O)c3nc(-c4ccco4)nn23)cc1
4. CCOC(=O)c1cnc(N2CCCCC2)n2nc(-c3ccco3)nc12
5. CCNc1ncc(C(=O)O)c2nc(-c3ccco3)nn12
6. CCOC(=O)c1cnc(NCc2ccc(OC)c(OC)c2)n2nc(-c3ccco3)nc12
7. CNC(=O)c1cnc(NC(=O)Cc2ccccc2)n2nc(-c3ccco3)nc12

["> 10 µM", "> 10 µM", "> 10 µM", "> 10 µM", "> 10 µM", "13.3 µM", "4.84 µM"]
